This collection of values is drawn from patent US20210388102A1.

Biological target: T1, His-tagged soluble human ADAM9 (shADAM9-His) (human, UniProt Q13443 206-697)
T1 construct: Contains an extracellular portion of human ADAM9; also called huADAM9-His; His peptide-tagged soluble huADAM9
T1 sequence: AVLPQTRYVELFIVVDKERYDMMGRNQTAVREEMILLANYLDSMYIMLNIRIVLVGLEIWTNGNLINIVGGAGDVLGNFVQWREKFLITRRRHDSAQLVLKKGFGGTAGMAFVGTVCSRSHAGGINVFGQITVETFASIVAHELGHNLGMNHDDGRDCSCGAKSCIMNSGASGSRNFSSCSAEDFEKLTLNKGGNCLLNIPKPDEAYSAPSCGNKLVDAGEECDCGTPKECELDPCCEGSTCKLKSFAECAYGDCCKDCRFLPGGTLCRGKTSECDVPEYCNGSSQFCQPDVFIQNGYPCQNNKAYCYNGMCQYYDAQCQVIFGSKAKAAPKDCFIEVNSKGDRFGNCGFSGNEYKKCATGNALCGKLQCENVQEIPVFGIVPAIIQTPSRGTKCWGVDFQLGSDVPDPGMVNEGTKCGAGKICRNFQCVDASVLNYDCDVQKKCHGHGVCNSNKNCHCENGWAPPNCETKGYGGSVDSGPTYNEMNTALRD
Assay: SPR (BIACORE), antibody captured, huADAM9-His in flow
experimental.readout: kon (M⁻¹ s⁻¹)
Provide the reading as a plain figure in M⁻¹ s⁻¹.

Exercise: Give the measured kon of hMAB-A (2B.2) (antibody, V domains shown, also called MAB-A VH(2B); MAB-A VH(2B.2)) VH: EVQLVESGGGLVKPGGSLRLSCAASGFTFSSYWMHWVRQAPGKGLEWVGEIIPIFGHTNYNEKFKSRFTISLDNSKNTLYLQMGSLRAEDTAVYYCARGGYYYYIGKGVLDYWGQGTTVTVSS VL: DIVMTQSPDSLAVSLGERATISCKASQSVDYSGDSYMNWYQQKPGQPPKLLIYAASDLESGIPARFSGSGSGTDFTLTISSLEPEDFATYYCQQSHEDPFTFGQGTKLEIK .
Key: 610000

Exercise: What does the data say about its kon? Entry: hMAB-A (2C.2) (antibody, human IgG1, kappa, V domains shown, IgG1 kappa; also called MAB-A VH(2C); MAB-A VH(2C.2)) VH: EVQLVESGGGLVKPGGSLRLSCAASGFTFSSYWMHWVRQAPGKGLEWVGEIIPIFGHTNYNEKFKSRFTISLDNSKNTLYLQMGSLRAEDTAVYYCARGGYYYYPRFGWLDYWGQGTTVTVSS VL: DIVMTQSPDSLAVSLGERATISCKASQSVDYSGDSYMNWYQQKPGQPPKLLIYAASDLESGIPARFSGSGSGTDFTLTISSLEPEDFATYYCQQSHEDPFTFGQGTKLEIKR
Key: 590000

Exercise: Bench note: what kon did hMAB-A (2.2) (antibody, human IgG1, kappa, V domains shown, IgG1 kappa; also called huMAB-A(2.2); parental hMAB-A (2.2)) VH: EVQLVESGGGLVKPGGSLRLSCAASGFTFSSYWMHWVRQAPGKGLEWVGEIIPIFGHTNYNEKFKSRFTISLDNSKNTLYLQMGSLRAEDTAVYYCARGGYYYYGSRDYFDYWGQGTTVTVSS VL: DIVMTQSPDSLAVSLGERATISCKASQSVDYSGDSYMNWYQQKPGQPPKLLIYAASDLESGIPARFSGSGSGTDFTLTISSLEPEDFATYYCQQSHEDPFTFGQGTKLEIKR show?
Key: 900000
